Tested on: L1210 leukemia ip in BDF1 mice, survival T/C
measurementProtocol: NCI In Vivo Anticancer Drug Screen. Data for tumor model L1210 Leukemia (intraperitoneal) in B6D2F1 (BDF1) mice
assayConditions: endpoint: mean survival time; dose: 400.0 mg/kg/injection; schedule: Q01DX001 (ip); vehicle: saline with Tween-80; higher = longer survival
Toxic doses and inconclusive results are not listed.
endpointLabel: T/C

* c1ccc(N2CCN(Cc3ccc4ccccc4c3)CC2)cc1 | 91 % of control
* Cc1cccc(OC(=O)Nc2ccc(Cl)cc2)c1 | 90 % of control
* NC(Cc1ccc(OCc2ccccc2)cc1)C(=O)O (stereo unspecified) | 89 % of control
* COc1c(C)c(C)c(OC(C)=O)c(C)c1COC(C)=O | 109 % of control
* CC(c1ccc(-c2ccccc2)cc1)C(Cl)c1ccccc1 (stereo unspecified) | 93 % of control
* CCCCCC[Si]CCCCCC | 94 % of control
* CCN(CC)C(=O)Oc1cccc(NC(=O)OC)c1 | 100 % of control
* O=C(/C=C/c1ccccc1)NC(=S)Nc1cccc2ccccc12 | 93 % of control
* O=S(=O)(/N=C1\C=CC=C\C1=N/S(=O)(=O)c1ccccc1)c1ccccc1 | 92 % of control
* Nc1cc(Sc2ccc(Cl)cc2)nc(N)n1 | 100 % of control

Entry CCOC(=O)/C(=C\c1cccc2ccccc12)c1ccncc1 , T/C reported as 96 % of control

Value of T/C reported for the compound O=C(Nc1ccc(S(=O)(=O)F)cc1)OCc1ccc([N+](=O)[O-])cc1 is 100 % of control

Measured T/C, CCCCCCCCCCCCCCCC(=O)N(CCC#N)c1ccc(N(CCC#N)C(=O)CCCCCCCCCCCCCCC)cc1 : 94 % of control

Form: compound = C=CCC(CCCCCCCCCCC)C(=O)O (stereo unspecified) ; T/C = 90 % of control

For reference, reported T/C for CCOC(=O)c1ccc(NCc2cccc([N+](=O)[O-])c2)cc1 stands at 88 % of control

So for CC(C)(C)C12N=NCC1C(=O)C1(C(C)(C)C)OC1C2=O (stereo unspecified) , the logged T/C turned out to be 94 % of control

----------
Form field: T/C (one value per entry).
System: L1210 leukemia ip in BDF1 mice, survival T/C
measurementProtocol: NCI In Vivo Anticancer Drug Screen. Data for tumor model L1210 Leukemia (intraperitoneal) in B6D2F1 (BDF1) mice
assayConditions: endpoint: mean survival time; dose: 100.0 mg/kg/injection; schedule: Q04DX003 (ip); vehicle: saline with Tween-80; higher = longer survival
Inconclusive results and toxic doses are left out.

- CCOC(=O)C(=O)c1ccccc1: 96 % of control
- CC(=O)Nc1cccc2c1C(=O)c1c(c(O)c3ccccc3c1O)C2=O: 96 % of control
- CCNC(=O)C1C2C=CC(CC2)C1C(=O)NCC (stereo not drawn): 87 % of control
- C=CC1C(C(=O)Nc2ccccc2)CN1C (stereo not drawn): 107 % of control
- CC(C)(N)CNc1ccccc1: 98 % of control
- CC1C(C(=O)c2ccc(-c3ccccc3)cc2)N1C1CCCCC1 (stereo not drawn): 93 % of control
- CCC(C(N)=O)N1C(=O)C2C3CCC(C3)C2C1=O (stereo not drawn): 90 % of control
- CC1=C(C)CP(C)(=O)C1: 93 % of control
- CCCOC(=O)COc1ccccc1: 96 % of control
- CCCC(C)(C)C(=O)Nc1cccc(O)c1: 95 % of control

Kindly review the next molecule as well.
Recorded T/C (molecule CCOC(COC(=O)c1ccccc1C(=O)O)c1ccccc1 (stereo not drawn) ): 94 % of control

----------
Tested on: L1210 leukemia ip in BDF1 mice, survival T/C
measurementProtocol: NCI In Vivo Anticancer Drug Screen. Data for tumor model L1210 Leukemia (intraperitoneal) in B6D2F1 (BDF1) mice
assayConditions: endpoint: mean survival time; dose: 50.0 mg/kg/injection; schedule: Q04DX003 (ip); vehicle: Klucel (hydroxypropylcellulose) (HPC); higher = longer survival
Inconclusive results and toxic doses are left out. Square brackets hold non-standard residues; d marks the D form. Peptide text beside a SMILES is read from it. * marks the point of attachment. ξ: configuration not given here. Cbz = O=C(OCc1ccccc1)*; ξD = NC(CC(=O)O)C(=O)O
Let's look at some molecules and their measured T/C.

* COC(=O)C(CSC(=O)c1ccccc1)NC(=O)c1ccccc1 (stereo not given) | 110 % of control
* O=C(O)CC(NC(=O)CNC(=O)OCc1ccccc1)C(=O)O (stereo not drawn) (Cbz-Gly-[ξD]-OH) | 94 % of control

T/C for CN=C1C=C(NC)C(F)(F)C1(F)F is 97 % of control

Measured T/C of CN(C)[C@@H]1C(=O)C(C(N)=O)=C(O)[C@@]2(O)C(=O)C3=C(O)c4c(O)cccc4C[C@H]3C[C@@H]12 : 107 % of control

response.value for CCC(=O)OC1(c2ccccc2)CCN(CCC(=O)c2ccccc2)CC1 (field: T/C) = 101 % of control

The recorded T/C for COc1cc([N+](=O)[O-])cc(C=O)c1O is 92 % of control

For record O=C(O)c1ccc(NC(C[N+](=O)[O-])C(F)(F)C(F)(F)C(F)(F)F)cc1 (stereo not given) the listed T/C is 93 % of control

The molecule BrCCC[P+](c1ccccc1)(c1ccccc1)c1ccccc1 showed T/C equal to 107 % of control

Form field T/C, entry COc1ccccc1OS(=O)(=O)c1ccc(C)cc1 : 105 % of control

Reported T/C of Cc1ccc(C(=O)Nc2ccc(OCCCc3c(N)nc(N)nc3N)cc2)cc1S(=O)(=O)F : 97 % of control

----------
Test system: L1210 leukemia ip in BDF1 mice, survival T/C
measurementProtocol: NCI In Vivo Anticancer Drug Screen. Data for tumor model L1210 Leukemia (intraperitoneal) in B6D2F1 (BDF1) mice
assayConditions: endpoint: mean survival time; dose: 200.0 mg/kg/injection; schedule: Q01DX009 (ip); vehicle: saline sonified; higher = longer survival
Inconclusive results and toxic doses are left out.
Listed compounds paired with reported T/C

* O=C(O)c1ccc(NC(C[N+](=O)[O-])C(F)(F)C(F)(F)C(F)(F)F)cc1 (centres undefined) | 86 % of control
* CC(CCc1cccc2ccccc12)(C(=O)O)C(=O)O | 104 % of control

Just so you know, measured T/C for CCOC(=O)c1c(N)sc2c1CCCC2 came out at 89 % of control

T/C for OCCCCc1ccccc1 is 97 % of control

----------
In this section, each of the compounds is paired with its reported T/C.
System: L1210 leukemia ip in BDF1 mice, survival T/C
measurementProtocol: NCI In Vivo Anticancer Drug Screen. Data for tumor model L1210 Leukemia (intraperitoneal) in B6D2F1 (BDF1) mice
assayConditions: endpoint: mean survival time; dose: 100.0 mg/kg/injection; schedule: Q01DX001 (ip); vehicle: saline; higher = longer survival
Toxic doses and inconclusive results are not listed.

* Nc1ccc(N=Nc2ccc(S(N)(=O)=O)cc2)c(N)n1 | 107 % of control

From here, focus on the item given below.
Briefly, T/C measured for CCOc1nc2ccccc2c2cc3ccccc3cc12 : 103 % of control

----------
System: L1210 leukemia ip in BDF1 mice, survival T/C
measurementProtocol: NCI In Vivo Anticancer Drug Screen. Data for tumor model L1210 Leukemia (intraperitoneal) in B6D2F1 (BDF1) mice
assayConditions: endpoint: mean survival time; dose: 100.0 mg/kg/injection; schedule: Q01DX001 (ip); vehicle: saline; higher = longer survival
Inconclusive results and toxic doses are left out.
Overview of recorded T/C for various compounds

Sample records with T/C:
* O=C1c2cc(Br)ccc2NC1(c1c[nH]c2ccc(Br)cc12)c1c[nH]c2ccc(Br)cc12 | 96 % of control
* C/C(CC(C)C)=N/O | 95 % of control
* CN(C)c1ccc(/C=C/c2ccc3ccccc3[n+]2C)cc1 | 112 % of control
* O=c1c(O)c(-c2ccc(Cl)cc2)oc2ccccc12 | 93 % of control
* O=C(C[N+]12CC=C(CO)C1C(O)CC2)c1ccc(Br)cc1 (configuration not stated) | 104 % of control

Notebook: COc1ccc2c(c1)c(CC(=O)O)c(C)n2C(=O)c1ccc(Cl)cc1 , T/C read as 95 % of control

Reported T/C for O=C(O)c1ccc([N+](=O)[O-])cc1S(=O)(=O)O was 102 % of control

Summary for this compound, C1CC(CCN2CCOCC2)CCN1 : T/C is 98 % of control

The reported value for Clc1cc(-c2ccccc2Br)nc2ccccc12 in terms of T/C is 90 % of control

Lab note: c1ccc(C(CC(c2ccccc2)(c2ccccc2)c2ccccc2)(c2ccccc2)c2ccccc2)cc1 gave T/C of 96 % of control

Entry Clc1cc[n+](-c2ccncc2)cc1 , T/C reported as 103 % of control

Entry under test: CC(=O)OCCC/C(=C\c1ccccc1)[N+](=O)[O-] . Its T/C was 107 % of control
